Data provenance is ChEMBL document CHEMBL1961873.

Biological target: Mitogen-activated protein kinase kinase kinase kinase 2 (Homo sapiens);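 note: reported value is a mean of MAP4K2 inhibition at 1 µM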
Settings: at 1 µM
quantity name: inhibition (%)
Please reply with the bare figure in % and do not write the unit itself.

Prompt: # lookup: inhibition of `COc1cc2ncn(-c3cc(OCc4ccccc4C(F)(F)F)c(C(=O)N(C)C)s3)c2cc1OC`
Completion: 2.23

Prompt: # lookup: inhibition of `COc1ccc(-c2nn3ncccc3c2-c2ccnc(Nc3ccc4c(c3)OCCO4)n2)cc1`
Completion: 4.16

Prompt: # lookup: inhibition of `CCNC(=O)O[C@H]1CN[C@H](C#Cc2cc3ncnc(Nc4ccc(OCc5cccc(F)c5)c(Cl)c4)c3s2)C1`
Completion: 2.21

Prompt: # lookup: inhibition of `CN(C)CCOc1ccc(-c2nc(-c3ccncc3)c(-c3ccc4c(c3)CC/C4=N\O)[nH]2)cc1`
Completion: 3.44

Prompt: # lookup: inhibition of `COc1ccc(-c2oc3ncnc(N)c3c2-c2ccc(NC(=O)Nc3cc(C(F)(F)F)ccc3F)cc2)cc1`
Completion: 47.2

Prompt: # lookup: inhibition of `COc1cc(N2CCN(C(C)C)CC2)ccc1Nc1nc(Nc2ccc(F)cc2C(N)=O)c2cc[nH]c2n1`
Completion: 31.1

Prompt: # lookup: inhibition of `CNC(=O)c1cccc(C#Cc2cncnc2Nc2ccc(OCc3cccc(F)c3)c(Cl)c2)c1`
Completion: 0.34

Prompt: # lookup: inhibition of `Nc1nc(-c2ccc(F)cc2)c(-c2ccc3ncccc3n2)s1`
Completion: 3.82

Prompt: # lookup: inhibition of `CC(=O)Nc1cccc(C#Cc2cncnc2Nc2ccc(OCc3cccc(F)c3)c(Cl)c2)c1`
Completion: 1.54

Prompt: # lookup: inhibition of `COc1ccc(CNC(=O)c2ccc(-c3cc(-c4nnc(C)o4)ccc3C)cc2)cc1`
Completion: 6.93

---

Target: Fibroblast growth factor receptor 1 (Homo sapiens);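 note: values are the mean percent inhibition of FGFR1 across replicate measurements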
Conditions: at 1 µM
quantity name: inhibition (%)
Please reply with the bare figure in % and do not write the unit itself.

Prompt: # lookup: inhibition of `COc1cc(/C=N/Nc2ncnc3[nH]ncc23)ccc1O`
Completion: 7.94

Prompt: # lookup: inhibition of `N#Cc1c(NC(=O)c2ccc(F)cc2)sc2c1CCCC2`
Completion: 2.08

Prompt: # lookup: inhibition of `Nc1ncc(-c2cccc(S(N)(=O)=O)c2)c2scc(-c3ccc(F)c(Cl)c3)c12`
Completion: 16.1

Prompt: # lookup: inhibition of `c1cc(-c2cnn3nc(N4CCOCC4)ccc23)nc(NC2CC2)n1`
Completion: 9.37

Prompt: # lookup: inhibition of `c1ccc(-c2nc3n(c2-c2ccc4c(c2)OCO4)CCC3)nc1`
Completion: 2.51

Prompt: # lookup: inhibition of `CC(=O)Nc1cccc(C#Cc2cncnc2Nc2ccc(OCc3cccc(F)c3)c(Cl)c2)c1`
Completion: 8.04

Prompt: # lookup: inhibition of `NS(=O)(=O)c1ccc(N/N=C2\C(=O)Nc3ccc4ncccc4c32)cc1`
Completion: 41

Prompt: # lookup: inhibition of `COC(=O)c1sc(-n2cnc3cc(OC)c(OC)cc32)cc1OCc1ccccc1C(F)(F)F`
Completion: 12.9

Prompt: # lookup: inhibition of `Nc1nc(-c2ccc(F)cc2)c(-c2ccc3ncccc3n2)s1`
Completion: 4.14

Prompt: # lookup: inhibition of `COc1cccc(-c2c[nH]c3c(N/N=C/c4ccncc4)ncnc23)c1`
Completion: 6.34

Prompt: # lookup: inhibition of `CCn1c(-c2nonc2N)nc2c(C#CC(C)(C)O)ncc(OC3CCNCC3)c21`
Completion: -4.66

Prompt: # lookup: inhibition of `CN1CCC(n2cnc(-c3ccc(F)cc3)c2-c2ccnc(Nc3ccccc3)n2)CC1`
Completion: -0.76

Prompt: # lookup: inhibition of CC1=C(C(=O)Nc2cc(Cl)c3[nH]ncc3c2)C(c2ccc(C(F)(F)F)cc2)CC(=O)N1 (stereo unspecified)
Completion: 2.9

Prompt: # lookup: inhibition of `NS(=O)(=O)c1ccc(Nc2ncc(-c3ccccc3)o2)cc1`
Completion: 8.69

Prompt: # lookup: inhibition of `Fc1ccc(-c2cc(-c3c[nH]nc3-c3ccccn3)ccn2)cc1`
Completion: 6.81

Prompt: # lookup: inhibition of `COc1ccc(-c2oc3ncnc(N)c3c2-c2ccc(NC(=O)Nc3cc(C(F)(F)F)ccc3F)cc2)cc1`
Completion: 66

Prompt: # lookup: inhibition of `O=C(O[C@H]1CN[C@H](C#Cc2cc3ncnc(Nc4ccc(Cc5ccccc5)cc4)c3s2)C1)N1CCOCC1`
Completion: 2.47

Prompt: # lookup: inhibition of `CC(C)(CO)CNC(=O)c1ccc2c(c1)/C(=N/Nc1ccc(S(N)(=O)=O)cc1)C(=O)N2`
Completion: 1.07

Prompt: # lookup: inhibition of `COc1ccc(-c2nn3ncccc3c2-c2ccnc(Nc3ccc4c(c3)OCCO4)n2)cc1`
Completion: 11.2

Prompt: # lookup: inhibition of `CCCN1CCC(c2ccc(Nc3nc(Nc4cc(F)ccc4C(N)=O)c4cc[nH]c4n3)c(OC)c2)CC1`
Completion: 2.41

Prompt: # lookup: inhibition of `NC(=O)c1sc(-n2cnc3ccc(C(F)(F)F)cc32)cc1OCc1ccccc1Br`
Completion: 5.11
